TARGET ENTITY: MAP kinase-activated protein kinase 2 (Homo sapiens)
Sequence (P49137 whole entry): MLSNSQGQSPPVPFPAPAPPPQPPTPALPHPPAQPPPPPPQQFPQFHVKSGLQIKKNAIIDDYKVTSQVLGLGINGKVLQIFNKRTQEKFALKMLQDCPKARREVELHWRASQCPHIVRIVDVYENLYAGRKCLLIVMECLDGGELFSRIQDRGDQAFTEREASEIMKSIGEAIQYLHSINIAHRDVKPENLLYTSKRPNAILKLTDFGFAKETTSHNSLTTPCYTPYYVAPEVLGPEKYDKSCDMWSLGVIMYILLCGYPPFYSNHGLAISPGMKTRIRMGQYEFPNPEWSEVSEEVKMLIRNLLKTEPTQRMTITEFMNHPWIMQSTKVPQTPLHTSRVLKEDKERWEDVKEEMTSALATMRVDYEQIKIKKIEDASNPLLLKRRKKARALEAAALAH
TEST METHOD NOTES: Inhibition of MK2
PROPERTY: IC50

Consider the molecule CONC(=O)c1ccc(C)c(Nc2nc(N(C)CC(C)(C)C)nc(N3CCCN(C)CC3)n2)c1 and give its measured IC50. > 10 µM

====

TARGET ENTITY: Protein kinase C delta type (Homo sapiens)
Sequence (Q05655 whole entry): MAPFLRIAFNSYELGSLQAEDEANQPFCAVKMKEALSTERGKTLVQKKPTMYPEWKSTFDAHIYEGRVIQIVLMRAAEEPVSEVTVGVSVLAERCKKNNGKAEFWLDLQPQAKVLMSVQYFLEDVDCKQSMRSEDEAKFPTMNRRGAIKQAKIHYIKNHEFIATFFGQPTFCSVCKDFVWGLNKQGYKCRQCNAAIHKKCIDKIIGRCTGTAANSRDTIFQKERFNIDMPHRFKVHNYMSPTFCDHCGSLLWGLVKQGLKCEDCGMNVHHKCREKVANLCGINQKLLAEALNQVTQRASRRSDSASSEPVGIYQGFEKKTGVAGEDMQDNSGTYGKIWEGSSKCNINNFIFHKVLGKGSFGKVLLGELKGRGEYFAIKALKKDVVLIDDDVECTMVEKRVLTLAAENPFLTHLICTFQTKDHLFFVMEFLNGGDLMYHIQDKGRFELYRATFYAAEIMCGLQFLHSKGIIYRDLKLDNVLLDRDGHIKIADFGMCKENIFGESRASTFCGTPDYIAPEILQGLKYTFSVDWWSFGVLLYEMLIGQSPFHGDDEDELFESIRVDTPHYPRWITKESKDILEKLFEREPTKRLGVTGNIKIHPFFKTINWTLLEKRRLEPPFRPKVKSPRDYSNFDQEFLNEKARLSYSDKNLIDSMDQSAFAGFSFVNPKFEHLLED
TEST METHOD NOTES: Inhibition of PKCdelta
PROPERTY: IC50

Consider the compound CONC(=O)c1ccc(C)c(Nc2nc(N(C)CC(C)(C)C)nc(N3CCCN(C)CC3)n2)c1 and give its measured IC50. > 10 µM

====

TEST METHOD NOTES: Half life in mouse
Format: ADME, organism-based
CONDITION INFO: in vivo
PROPERTY: half-life (min)
Write the value in min as a bare number.

Consider the compound CONC(=O)c1ccc(C)c(Nc2nc(N(C)CC(C)(C)C)nc(N3CCCN(C)CC3)n2)c1 and give its measured half-life. 42

====

TARGET ENTITY: Inhibitor of nuclear factor kappa-B kinase subunit beta (Homo sapiens)
Sequence (O14920 whole entry): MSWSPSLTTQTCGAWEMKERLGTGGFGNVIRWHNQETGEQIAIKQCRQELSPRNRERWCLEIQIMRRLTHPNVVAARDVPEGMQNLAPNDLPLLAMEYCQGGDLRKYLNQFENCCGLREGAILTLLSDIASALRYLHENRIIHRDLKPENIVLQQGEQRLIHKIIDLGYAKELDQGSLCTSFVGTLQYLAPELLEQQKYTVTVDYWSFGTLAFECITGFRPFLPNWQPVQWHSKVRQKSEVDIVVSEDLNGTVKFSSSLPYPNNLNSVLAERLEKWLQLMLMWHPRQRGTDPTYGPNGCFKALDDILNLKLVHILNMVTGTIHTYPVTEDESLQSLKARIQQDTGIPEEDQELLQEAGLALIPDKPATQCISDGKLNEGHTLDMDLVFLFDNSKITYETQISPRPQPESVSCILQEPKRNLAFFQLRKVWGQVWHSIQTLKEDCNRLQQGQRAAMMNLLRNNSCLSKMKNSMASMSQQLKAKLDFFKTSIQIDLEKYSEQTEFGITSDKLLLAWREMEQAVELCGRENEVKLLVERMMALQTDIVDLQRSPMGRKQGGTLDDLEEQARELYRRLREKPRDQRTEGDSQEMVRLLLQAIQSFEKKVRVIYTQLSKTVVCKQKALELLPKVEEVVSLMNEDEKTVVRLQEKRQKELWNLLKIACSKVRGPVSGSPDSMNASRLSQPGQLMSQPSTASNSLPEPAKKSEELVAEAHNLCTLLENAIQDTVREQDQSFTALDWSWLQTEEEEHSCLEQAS
TEST METHOD NOTES: Inhibition of human IKK2beta
PROPERTY: IC50

Consider the compound CONC(=O)c1ccc(C)c(Nc2nc(N(C)CC(C)(C)C)nc(N3CCCN(C)CC3)n2)c1 and give its measured IC50. > 10 µM

====

TARGET ENTITY: Mitogen-activated protein kinase 11 (Homo sapiens)
Sequence (Q15759 whole entry): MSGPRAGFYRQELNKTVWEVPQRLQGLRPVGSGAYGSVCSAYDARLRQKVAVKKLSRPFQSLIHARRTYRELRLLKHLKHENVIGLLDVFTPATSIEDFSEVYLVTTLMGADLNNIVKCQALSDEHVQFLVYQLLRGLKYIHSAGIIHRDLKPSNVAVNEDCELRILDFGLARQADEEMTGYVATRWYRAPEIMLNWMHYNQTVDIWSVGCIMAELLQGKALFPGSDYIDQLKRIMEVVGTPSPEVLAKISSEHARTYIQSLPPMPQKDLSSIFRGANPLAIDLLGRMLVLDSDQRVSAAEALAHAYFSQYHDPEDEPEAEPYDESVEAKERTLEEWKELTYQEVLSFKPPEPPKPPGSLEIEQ
TEST METHOD NOTES: Inhibition of human p38beta
PROPERTY: IC50
Provide a numeric answer, followed by its unit.

Consider the compound CONC(=O)c1ccc(C)c(Nc2nc(N(C)CC(C)(C)C)nc(N3CCCN(C)CC3)n2)c1 and give its measured IC50. 22 nM

====

TEST METHOD NOTES: Bioavailability in mouse
Type: ADME, organism-based
CONDITION INFO: in vivo
PROPERTY: bioavailability (%)
Write the value in % as a bare number.

Consider the molecule CONC(=O)c1ccc(C)c(Nc2nc(N(C)CC(C)(C)C)nc(N3CCCN(C)CC3)n2)c1 and give its measured bioavailability. 8

====

TARGET ENTITY: UniProt P35968
Sequence (P35968 whole entry): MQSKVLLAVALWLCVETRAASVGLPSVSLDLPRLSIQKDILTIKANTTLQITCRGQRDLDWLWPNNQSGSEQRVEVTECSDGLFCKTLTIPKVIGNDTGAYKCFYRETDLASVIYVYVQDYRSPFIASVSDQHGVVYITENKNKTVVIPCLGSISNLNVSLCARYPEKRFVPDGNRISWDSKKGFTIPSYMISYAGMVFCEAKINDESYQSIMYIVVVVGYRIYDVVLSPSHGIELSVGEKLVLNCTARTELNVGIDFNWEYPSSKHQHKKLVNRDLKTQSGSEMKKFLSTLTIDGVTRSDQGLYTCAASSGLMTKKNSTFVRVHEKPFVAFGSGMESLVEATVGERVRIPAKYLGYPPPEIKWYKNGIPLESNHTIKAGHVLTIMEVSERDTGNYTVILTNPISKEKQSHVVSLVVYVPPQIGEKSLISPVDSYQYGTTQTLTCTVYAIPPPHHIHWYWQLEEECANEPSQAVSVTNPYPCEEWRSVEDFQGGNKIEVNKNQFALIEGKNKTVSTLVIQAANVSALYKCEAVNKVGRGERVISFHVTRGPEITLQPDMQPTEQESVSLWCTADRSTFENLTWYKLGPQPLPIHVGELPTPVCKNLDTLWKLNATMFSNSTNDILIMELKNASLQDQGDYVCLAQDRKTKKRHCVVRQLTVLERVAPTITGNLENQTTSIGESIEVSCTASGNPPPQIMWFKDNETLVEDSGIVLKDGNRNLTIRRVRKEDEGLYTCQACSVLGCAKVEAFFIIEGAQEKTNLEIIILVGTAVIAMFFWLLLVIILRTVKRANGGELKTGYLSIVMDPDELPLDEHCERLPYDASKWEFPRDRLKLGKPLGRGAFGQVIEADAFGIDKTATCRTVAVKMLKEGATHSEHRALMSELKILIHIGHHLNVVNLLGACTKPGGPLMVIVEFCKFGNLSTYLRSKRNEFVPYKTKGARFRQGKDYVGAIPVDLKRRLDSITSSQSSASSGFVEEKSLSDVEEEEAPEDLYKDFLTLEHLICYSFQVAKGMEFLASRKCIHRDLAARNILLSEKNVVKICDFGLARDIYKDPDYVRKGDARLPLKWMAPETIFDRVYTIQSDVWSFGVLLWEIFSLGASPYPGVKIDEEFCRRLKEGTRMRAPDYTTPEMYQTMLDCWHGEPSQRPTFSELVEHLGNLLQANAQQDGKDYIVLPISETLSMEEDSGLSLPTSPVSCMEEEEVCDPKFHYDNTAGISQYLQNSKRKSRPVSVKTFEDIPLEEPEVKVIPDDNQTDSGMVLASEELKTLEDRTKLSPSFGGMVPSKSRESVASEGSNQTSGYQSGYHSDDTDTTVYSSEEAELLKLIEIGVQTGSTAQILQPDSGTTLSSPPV
pIC50: −log10 of the molar value.
PROPERTY: pIC50

Consider the molecule CONC(=O)c1ccc(C)c(Nc2nc(N(C)CC(C)(C)C)nc(N3CCCN(C)CC3)n2)c1 and give its measured pIC50. < 5.00

====

Items are presented alongside their recorded pIC50.
TARGET ENTITY: Mitogen-activated protein kinase 14 (Homo sapiens, UniProt Q16539)
Sequence (Q16539 whole entry): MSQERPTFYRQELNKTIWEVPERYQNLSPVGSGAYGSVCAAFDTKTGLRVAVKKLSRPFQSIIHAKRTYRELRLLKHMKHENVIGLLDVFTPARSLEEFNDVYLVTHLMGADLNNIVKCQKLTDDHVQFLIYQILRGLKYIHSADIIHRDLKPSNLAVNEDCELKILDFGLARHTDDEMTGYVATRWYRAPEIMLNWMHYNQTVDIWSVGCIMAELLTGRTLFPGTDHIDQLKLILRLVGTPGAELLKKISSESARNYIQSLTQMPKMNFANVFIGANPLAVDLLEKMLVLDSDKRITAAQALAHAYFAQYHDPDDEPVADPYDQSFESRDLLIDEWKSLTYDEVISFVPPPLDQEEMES
TEST METHOD NOTES: Inhibition of human p38-alpha expressed in Escherichia coli
# pIC50 is unitless: minus log10 of the molar concentration; print number only

Completed entries (count: 6):
> print(dat)
                                   compound  property  result.number
1  CONC(=O)c1ccc(C)c(Nc2nc(N(C)CC(C)(C)C)nc(N3CCCN(C)CC3)n2)c1     pIC50           7.36
2  CCNC(=O)c1ccc(C)c(Nc2nc(N[C@H]3CCNC3)nc(N(C)CC(C)(C)C)n2)c1     pIC50           7.51
3  Cc1ccc(C(N)=O)cc1Nc1nc(NC[C@@H]2CC[C@H]3C[C@@H]2C3(C)C)nc(N2CCCN(C)CC2)n1     pIC50           5.85
4  CONC(=O)c1ccc(C)c(Nc2nc(N(C)CC(C)(C)C)nc(N3CCNCC3)n2)c1     pIC50           7.74
5  Cc1ccc(C(=O)NCc2ccccc2)cc1Nc1nc(N[C@H]2CCNC2)nc(N(C)CC(C)(C)C)n1     pIC50           7.19
6  COCCNC(=O)c1ccc(C)c(Nc2nc(N[C@H]3CCNC3)nc(N(C)CC(C)(C)C)n2)c1     pIC50           6.58

Consider the compound Cc1ccc(C(N)=O)cc1Nc1nc(NC[C@@H]2CC[C@H]3C[C@@H]2C3(C)C)nc(N[C@H]2CCNC2)n1 and give its measured pIC50. 7.28

Consider the compound COC(=O)c1ccc(C)c(Nc2nc(N[C@H]3CCNC3)nc(N(C)CC(C)(C)C)n2)c1 and give its measured pIC50. 6.46
